test_system: Ifenprodil binding site on the NR2B subunit (Rattus norvegicus, UniProt P35439+Q00960)
Construct: tissue Eurofins 232910/233010/234000/SafetyScreen44 Panel; host or cells: rat cerebral cortex
Sequence (Q00960 27-1482, other chains not shown): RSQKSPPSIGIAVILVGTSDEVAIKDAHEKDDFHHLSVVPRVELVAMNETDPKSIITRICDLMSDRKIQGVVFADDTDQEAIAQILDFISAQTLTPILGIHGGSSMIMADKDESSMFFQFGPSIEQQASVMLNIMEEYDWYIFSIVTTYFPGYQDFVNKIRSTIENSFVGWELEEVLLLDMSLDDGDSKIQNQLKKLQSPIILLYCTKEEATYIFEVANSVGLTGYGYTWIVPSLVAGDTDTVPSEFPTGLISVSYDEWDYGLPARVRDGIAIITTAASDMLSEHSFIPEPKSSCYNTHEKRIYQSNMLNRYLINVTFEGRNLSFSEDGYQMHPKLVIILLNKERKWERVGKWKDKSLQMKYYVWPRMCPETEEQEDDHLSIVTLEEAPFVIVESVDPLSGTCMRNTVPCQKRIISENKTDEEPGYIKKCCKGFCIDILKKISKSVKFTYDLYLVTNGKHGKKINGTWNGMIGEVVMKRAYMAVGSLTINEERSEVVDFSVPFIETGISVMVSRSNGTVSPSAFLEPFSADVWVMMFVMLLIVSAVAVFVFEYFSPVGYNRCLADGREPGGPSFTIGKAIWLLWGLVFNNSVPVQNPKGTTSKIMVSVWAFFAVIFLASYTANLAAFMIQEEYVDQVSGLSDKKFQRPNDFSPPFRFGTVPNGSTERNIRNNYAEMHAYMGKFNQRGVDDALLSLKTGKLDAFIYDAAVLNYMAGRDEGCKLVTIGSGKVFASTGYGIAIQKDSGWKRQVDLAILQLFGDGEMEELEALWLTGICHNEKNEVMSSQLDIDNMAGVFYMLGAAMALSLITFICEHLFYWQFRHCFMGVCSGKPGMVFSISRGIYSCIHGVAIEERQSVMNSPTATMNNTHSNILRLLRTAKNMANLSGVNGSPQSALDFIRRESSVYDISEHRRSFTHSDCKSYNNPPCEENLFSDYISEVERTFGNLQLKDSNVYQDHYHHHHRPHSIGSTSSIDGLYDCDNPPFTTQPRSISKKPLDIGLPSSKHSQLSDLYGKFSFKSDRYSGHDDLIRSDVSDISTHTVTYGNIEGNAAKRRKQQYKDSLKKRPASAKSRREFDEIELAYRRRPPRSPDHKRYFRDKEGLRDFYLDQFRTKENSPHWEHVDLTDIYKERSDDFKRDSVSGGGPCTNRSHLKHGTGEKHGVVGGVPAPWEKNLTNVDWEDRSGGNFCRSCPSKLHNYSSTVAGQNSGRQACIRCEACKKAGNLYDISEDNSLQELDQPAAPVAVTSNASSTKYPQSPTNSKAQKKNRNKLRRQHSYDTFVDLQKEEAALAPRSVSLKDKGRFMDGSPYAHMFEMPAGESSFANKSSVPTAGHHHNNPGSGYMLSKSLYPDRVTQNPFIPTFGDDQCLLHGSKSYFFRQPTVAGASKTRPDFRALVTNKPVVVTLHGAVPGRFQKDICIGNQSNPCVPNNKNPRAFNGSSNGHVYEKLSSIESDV
procedure_details: NMDAR radiolabeled ligand displacement assay, Ifenprodil
parameter_measured: IC50
Dear colleague, please send the value followed by its unit.

INSERT INTO results (compound, test_system, measured_result) VALUES
  ('CC(=O)O.N=C(N)N/N=C/c1c(Cl)cccc1Cl [Compound 1, acetate salt]', 'Ifenprodil binding site on the NR2B subunit (Rattus norvegicus, UniProt P35439+Q00960)', '400 nM');

// returns reported IC50 for input `N=C(N)N/N=C/c1ccc(F)cc1Cl`
250 nM
